Entries and their measured activity, negative = inhibition follow.
# system: Cytochrome P450 3A4 (Homo sapiens)
# procedure_summary: Cytochrome panel assay with activity outcomes; on activity, negative = inhibition: on the % scale 0 is the no-effect control and ±100 the full control effect
# protocol_conditions: recombinant CYP, pro-luciferin dealkylation, luminescence, p450-cyp3a4; series mostly up to 57.1 µM
In all, about 16,000 compounds went through this assay and about 5,100 (32%) were called active. Not shown: some 25% with an inconclusive outcome. This is one part of the list.

compound: Cc1cc2c(nc1C)CCCN2CC(O)CN1CCCc2nc(C)c(C)cc21
assay_endpoint: activity, negative = inhibition
endpoint_value: -8.33% [at 11.4 µM] (inactive)

Lookup: Under Cytochrome P450 3A4 (Homo sapiens): activity, negative = inhibition value of CC1(C)CC2(CC(c3cccs3)c3cc(Cl)c(O)cc3O2)NC(=S)N1 (stereo not drawn) ?
Found: -22.1% [at 2.29 µM] (inactive)

Lookup: What do we get for `CCN(CC)C[C@@H](O)CN1CCCCc2nc(C)c(C)cc21` ?
Found: -14.9% [at 11.4 µM] (inactive)

----------
# system: Cytochrome P450 3A4 (Homo sapiens)
# procedure_summary: Cytochrome panel assay with activity outcomes
# protocol_conditions: recombinant CYP, pro-luciferin dealkylation, luminescence, p450-cyp3a4; series mostly up to 57.1 µM
About 5,100 (32%) of roughly 16,000 compounds were called active. About 25% were inconclusive and are not listed. Some of the results follow.
assay_endpoint: AC50

compound: COc1cc(-c2nnc(COC(=O)c3c4c(nc5ccccc35)CCCC4)o2)cc(OC)c1OC
system: Cytochrome P450 3A4 (Homo sapiens)
endpoint_value: 4.47 µM (active)
//
compound: CCC1(C)Cc2c(sc3nnn(CC(=O)Nc4ccc(C)cc4)c(=O)c23)CO1 (stereo unspecified)
system: Cytochrome P450 3A4 (Homo sapiens)
endpoint_value: 14.1 µM (active)
//
compound: COc1cccc([C@@H]2Oc3ccc(OC)cc3/C(=N/O[C@@H](C)CN3CCCc4nc(C)c(C)cc43)[C@@H]2O)c1
system: Cytochrome P450 3A4 (Homo sapiens)
endpoint_value: 3.16 µM (active)
//
compound: O=C(Cc1ccccc1)NC(NC(=S)Nc1cc(Cl)ccc1Cl)C(Cl)(Cl)Cl (stereo unspecified)
system: Cytochrome P450 3A4 (Homo sapiens)
endpoint_value: 4.47 µM (active)
//
compound: Cc1ccc(C(=O)Cn2nnc3c(sc4nc5c(c(-c6ccccc6)c43)CCC5)c2=O)cc1
system: Cytochrome P450 3A4 (Homo sapiens)
endpoint_value: inactive
//
compound: CCC(=O)Nc1ccc2c(c1)C(=O)c1ccccc1C2=O
system: Cytochrome P450 3A4 (Homo sapiens)
endpoint_value: 7.08 µM (active)
//
compound: COc1ccc(OC)c(NC(=O)c2c3c(nc4ccccc24)CCC3)c1
system: Cytochrome P450 3A4 (Homo sapiens)
endpoint_value: 7.08 µM (active)
//
compound: O=C(NC(NC(=S)Nc1cc(Cl)ccc1Cl)C(Cl)(Cl)Cl)c1ccco1 (stereo unspecified)
system: Cytochrome P450 3A4 (Homo sapiens)
endpoint_value: 6.31 µM (active)
//
compound: Cc1ccnc2nc(C(=O)OCC(=O)Nc3ccc4c(c3)OC(F)(F)O4)nn12
system: Cytochrome P450 3A4 (Homo sapiens)
endpoint_value: inactive
//
compound: CCC1(C)Cc2c(sc3nnn(CC(=O)Nc4cccc5ccccc45)c(=O)c23)CO1 (stereo unspecified)
system: Cytochrome P450 3A4 (Homo sapiens)
endpoint_value: 10 µM (active)

Lookup: Need AC50, item `NS(=O)(=O)c1cccc2c1c([N+](=O)[O-])cc1nc(O)c(O)nc12`
Found: inactive

Lookup: What do we get for CC1CN(C2CCN(C(=O)c3cccc(Cl)c3)CC2)CC(C)O1 (stereo unspecified) ?
Found: inactive

Provenance of the data: PubChem BioAssay AID1851
